The following compounds are listed with their measured TGI values.
System: SK-MEL-5 melanoma
Protocol text: NCI tumour cell line growth inhibition, 48 h

The examples below pair each entry with its known result.
COc1nc(OC)nc(-c2cccc(F)c2)n1 ... 29.8 µM
O=C1/C(=C/c2cccc(Br)c2)COc2ccc(O)c(O)c21 ... 3.03 µM
N=C(N)SCCCN ... 30.1 µM
CCN1C(=O)N(CC)C2C1NN=c1s/c(=C\c3ccc[nH]3)c(=O)n12 (stereo unspecified) ... > 41.5 µM
Cc1cc(NC(=O)c2cnc(N3CCN(CCOCCOCCOCCOCCC(=O)N[C@H](C(=O)N4C[C@H](O)C[C@H]4C(=O)N[C@@H](C)c4ccc(-c5scnc5C)cc4)C(C)(C)C)CC3)cn2)c2ncccc2c1 ... 5.72 µM

Okay, now this compound:
Query string: For the compound CCC[CH2][Sn]([CH2]CCC)([O]C(=O)/C=C/c1ccccc1F)[O]C(=O)/C=C/c1ccccc1F , give its reported TGI.
Result string: 2.31 µM
